Hey, just so you know, these numbers are from ChEMBL document CHEMBL4513216.

# System: Plasmodium berghei
# Assay Protocol: Screen against P. berghei liver stage (PbLuc), transformed with Luciferase, at 2uM
# Type: functional, HepG2
# Experimental Setup: tested at 2 uM
Among all 68,000 compounds or so, about 2,700 (4%) showed an effect of 50% or more. Shown is part of a subset that was picked to be rich in strong results.
Attribute Measured: INHIBITION

1) c1ccc(CN2CCCC(CNc3ncnc4c3CCNCC4)C2)cc1 (stereo not drawn)    29.87%
2) COC(=O)CNC(=O)C12CCC(=O)N1c1cc(Cl)ccc1S2 (stereo not drawn)    48.21%
3) CN1CC2(CCN(CC3CC3)CC2)COc2ccccc2S1(=O)=O    -22.64%
4) COc1ccnc(N2CCN(C(=O)c3cscn3)CC2)n1    50.98%
5) CS(=O)(=O)CCCN1CCSCC1c1ccc(Cl)cc1 (stereo not drawn)    62.51%
6) COC(=O)c1cccc(S(=O)(=O)NC(=O)COC2CCCCC2)c1    19.64%
7) CS(=O)(=O)NCCN1CCCC1c1ccc(Cl)cc1 (stereo not drawn)    8.42%
8) COc1ccnc(N2CCN(C(=O)c3csc(C)n3)CC2)n1    -2.99%
9) Cc1nn(CCO)c(C)c1CNCc1cccnc1N(C)C    23.42%
10) COc1ccnc(N2CCN(C(=O)c3csnn3)CC2)n1    36.66%
11) COc1ccnc(N2CCN(Cc3ncc(C(C)(C)C)o3)CC2)n1    2.67%
12) Cn1ccnc1C(O)c1ccccc1N1CCN(Cc2ccsc2)CC1 (stereo not drawn)    -16.2%
13) COc1ccnc(N2CCN(C(=O)CN3CCOCC3)CC2)n1    -19.35%
14) COc1ccnc(N2CCN(Cc3ncc(-c4ccccc4)o3)CC2)n1    -41.69%
15) O=C(c1ccco1)N1CCOCC2(C1)CN(c1ccccc1)C(=O)CO2 (stereo not drawn)    16.48%
16) CCOCCCNC(=O)C1(C)CCC(=O)N1c1ccccc1F (stereo not drawn)    19.99%
17) COc1ccnc(N2CCN(CC(=O)N3CCOCC3)CC2)n1    -2.9%
18) COc1ccnc(N2CCN(C(=O)Cc3csc(C)n3)CC2)n1    51.35%
